Where these numbers come from: ChEMBL document CHEMBL2311458

Test system: Acinetobacter baumannii
measurementProtocol: Antibacterial activity against Acinetobacter baumannii assessed as growth inhibition measured at 50 ug/ml after 24 hrs by broth microdilution method
Format: functional
Give True when the value for inhibition at 50 µg/mL is at least 20%. Give False when it is less.

Answered cases to consult:
Query string: Does the reported inhibition at 50 µg/mL for COC1=C(c2ccccc2)C(=O)O/C1=C\c1ccccc1 fall at or above the 20% mark?
Result string: False

Query string: Does the reported inhibition at 50 µg/mL for COC1=C(c2cccc(F)c2)C(=O)OC1C(O)c1ccc(N2CCOCC2)c(F)c1 (stereo not drawn) fall at or above the 20% mark?
Result string: True

Query string: Does the reported inhibition at 50 µg/mL for COC1=C(c2ccc(Cl)cc2)C(=O)OC1C(O)c1ccc(N2CCOCC2)c(F)c1 (stereo not drawn) fall at or above the 20% mark?
Result string: True

Query string: Does the reported inhibition at 50 µg/mL for O=C1O/C(=C\c2ccc(N3CCOCC3)c(F)c2)C(O)=C1c1ccc(F)cc1 fall at or above the 20% mark?
Result string: False

Query string: Does the reported inhibition at 50 µg/mL for COC1=C(c2ccccc2)C(=O)O/C1=C\c1ccc(N2CCOCC2)c(F)c1 fall at or above the 20% mark?
Result string: False

***
Query string: Does the reported inhibition at 50 µg/mL for COC1=C(c2ccc(C)cc2)C(=O)OC1C(O)c1ccc(N2CCOCC2)c(F)c1 (stereo not drawn) fall at or above the 20% mark?
Result string: False

Query string: Does the reported inhibition at 50 µg/mL for COC1=C(c2ccc(F)cc2)C(=O)OC1C(O)c1ccc(N2CCOCC2)c(F)c1 (stereo not drawn) fall at or above the 20% mark?
Result string: True
